experiment: Plasma concentration in CB17 SCID mouse xenografted with human PC3 cells at 1 mg/kg, po measured at 24 hrs by LC/MS-MS analysis; type: ADME, organism-based, PC-3
MEASUREMENT NAME: concentration at 24 h (nM)
Give your result in nM as a bare value.

Look at this molecule and give its reported concentration at 24 h. `CCN1C(=O)CNc2ncc(-c3ccc(-c4nc[nH]n4)nc3C)nc21`
5

###

test: Plasma concentration in CB17 SCID mouse xenografted with human PC3 cells at 1 mg/kg, po measured at 10 hrs by LC/MS-MS analysis; format: ADME, organism-based, PC-3
MEASUREMENT NAME: concentration at 10 h (nM)
Give your result in nM as a bare value.

Look at this molecule and give its reported concentration at 10 h. CCN1C(=O)CNc2ncc(-c3ccc(-c4nc[nH]n4)nc3C)nc21 [CC-115]
120
